experimental_target: Human vitronectin receptor (αvβ3) (Homo sapiens, UniProt P05106+P06756)
Construct: Human vitronectin receptor (αvβ3) was purified from human placenta; from tissue; host or cells: human placenta
protocol_description: Vitronectin adhesion assay (solid phase receptor assay, competition with biotinylated vitronectin)
Assay type: binding
particulars: read-out: AvB3 IC50
Structures can show the parent of a compound that is named as a salt.
measured_quantity: log10(IC50) (log10 of the value in nM)
Lab note - IC50 converted to log10 from values in nM.

compound CCN/C(=N\C)Nc1cccc(C(=O)NCC(=O)NC(CC(=O)O)c2cc(Cl)cc(Cl)c2)c1 (racemic) [Example 295, trifluoroacetate salt] , log10(IC50) observed: 2.16

---

experimental_target: Human vitronectin receptor (αvβ3) (Homo sapiens, UniProt P05106+P06756)
Construct: Human vitronectin receptor (αvβ3) was purified from human placenta; from tissue; host or cells: human placenta
protocol_description: Vitronectin adhesion assay (solid phase receptor assay, competition with biotinylated vitronectin)
Type: binding
particulars: read-out: AvB3 IC50
Counter-ions that a name gives are not always drawn.
measured_quantity: pIC50
Notebook: values listed as pIC50 are -log10 of the concentration (mol/L).

- COc1cc(C(CC(=O)O)NC(=O)CNC(=O)c2cccc(NC(=N)N)c2)cc(Br)c1OC (racemic) [Example 262, trifluoroacetate salt]: 8.91
- NS(=O)(=O)c1ccc(CNC(=O)Nc2cccc(C(=O)NCC(=O)NC(CC(=O)O)c3cccnc3)c2)cc1 (stereo not drawn) [Example 126, trifluoroacetate salt]: 8.61

Note: attention shifts to another entry.
pIC50 for Human vitronectin receptor (αvβ3) (Homo sapiens, UniProt P05106+P06756) with input O=C(O)CC(NC(=O)CNC(=O)c1cccc(NC2=NCCCCC2)c1)c1cccnc1 (racemic) equals 8.96

---

experimental_target: Human fibrinogen receptor (αIIbβ3) (Homo sapiens, UniProt P05106+P08514)
Construct: Human fibrinogen receptor (αIIbβ3) was purified from outdated platelets; from tissue; host or cells: outdated human platelets
protocol_description: Purified IIb/IIIa receptor assay (solid phase receptor assay, competition with biotinylated vitronectin)
Assay type: binding
particulars: read-out: IIb/IIIa IC50
Method: PURIFIED IIb/IIIa RECEPTOR ASSAY Human fibrinogen receptor (αIIbβ3) was purified from outdated platelets. […] The purified human fibrinogen receptor (αIIbβ3) was diluted from stock solutions to 1.0 μg/mL in Tris-buffered saline containing 1.0 mM Ca^++, Mg^++, and Mn^++, pH 7.4 (TBS^+++). […] The plate was read with a microtiter plate reader at a wavelength of 450 nm and when the maximum-binding control wells reached an absorbance of about 1.0, the final A450 were recorded for analysis. […]
Where a name gives a salt, the structure may show the parent alone.
measured_quantity: IC50 (nM)
Give just the number in nM; leave the unit off.

Example compounds with recorded IC50:
• NS(=O)(=O)c1ccc(CNC(=O)Nc2cccc(C(=O)NCC(=O)NC(CC(=O)O)c3cccnc3)c2)cc1 (stereo not shown) [Example 126, trifluoroacetate salt] = 2010
• C#C[C@H](CC(=O)O)NC(=O)CNC(=O)c1cccc(NC(=N)N)c1 [Example 45, hydrochloride salt] = 39.5
• Cc1ccc(C(CC(=O)O)NC(=O)CNC(=O)c2cccc(NC(=N)N)c2)s1 (stereo not shown) [Example 253, trifluoroacetate salt] = 109

Tested on Human fibrinogen receptor (αIIbβ3) (Homo sapiens, UniProt P05106+P08514): CCOC(=O)CC(NC(=O)CNC(=O)c1cccc(NC(=O)Nc2ccccc2)c1)c1cccnc1 (stereo not shown) [Example 107] . Observed IC50: 18700

Entry CC(C)Oc1cc(OC(C)C)cc(C(CC(=O)O)NC(=O)CNC(=O)c2cccc(NC(=N)N)c2)c1 (stereo not shown) [Example 275, trifluoroacetate salt] under Human fibrinogen receptor (αIIbβ3) (Homo sapiens, UniProt P05106+P08514) had IC50 of 1200

Observed IC50 on Human fibrinogen receptor (αIIbβ3) (Homo sapiens, UniProt P05106+P08514), entry C#C[C@@H](CC(=O)O)NC(=O)CNC(=O)c1cccc(NC(=N)N)c1 [Example 43, hydrochloride salt] , equals 1640

Form field, IC50 with Human fibrinogen receptor (αIIbβ3) (Homo sapiens, UniProt P05106+P08514), item O=C(O)CC(NC(=O)CNC(=O)c1cccc(NC2=NCCCN2)c1)c1cc(Cl)cc(Cl)c1 (racemic) [Example 200, trifluoroacetate salt] : 1100
